- Tested on: E. coli TESEC Mtb Alr
- protocol-details: growth (OD600 after 10 h); higher = more growth (less inhibition)
- setup-conditions: arabinose 100 nM; compound 0.1 mM; raw OD600 reference: median of DMSO wells 0.413, cell-free background 0.052
Counter-ions that a name gives are not always drawn.
Attribute: growth

Example cases with answers are listed next.
| compound | growth |
| --- | --- |
| CCCN1C[C@H](CSC)C[C@@H]2c3cccc4[nH]cc(c34)C[C@H]21 [Pergolide mesylate] | 0.426 |
| COc1ccc(CCN2CCC(Nc3nc4ccccc4n3Cc3ccc(F)cc3)CC2)cc1 | 0.176 |

Request: Give recorded growth with E. coli TESEC Mtb Alr for the following compound: CC(C)c1cccc(C(C)C)c1O
Result: 0.389

Request: Give recorded growth with E. coli TESEC Mtb Alr for the following compound: C[N+]1([O-])[C@@H]2C[C@@H](OC(=O)[C@H](CO)c3ccccc3)C[C@H]1[C@@H]1O[C@@H]12 (stereo partly drawn) [Scopolamin-N-oxide hydrobromide]
Result: 0.411

Request: Give recorded growth with E. coli TESEC Mtb Alr for the following compound: OC(c1ccccc1)(c1ccccc1)C1CCNCC1
Result: 0.412

Request: Give recorded growth with E. coli TESEC Mtb Alr for the following compound: CC(C)C[C@H]1C(=O)N2CCC[C@H]2[C@]2(O)O[C@](NC(=O)[C@@H]3C=C4c5cccc6[nH]c(Br)c(c56)C[C@H]4N(C)C3)(C(C)C)C(=O)N12 [Bromocryptine mesylate]
Result: 0.401

Request: Give recorded growth with E. coli TESEC Mtb Alr for the following compound: CN1C(=O)CCS(=O)(=O)C1c1ccc(Cl)cc1 (stereo not drawn)
Result: 0.408

Request: Give recorded growth with E. coli TESEC Mtb Alr for the following compound: CCN[C@@H](C)Cc1cccc(C(F)(F)F)c1 [Dexfenfluramine hydrochloride]
Result: 0.412

Request: Give recorded growth with E. coli TESEC Mtb Alr for the following compound: C[C@]12CC[C@H](O)C[C@@H]1CC[C@@H]1[C@@H]2CC[C@]2(C)C(=O)CC[C@@H]12 [Epiandrosterone]
Result: 0.353

Request: Give recorded growth with E. coli TESEC Mtb Alr for the following compound: C1CCc2nnnn2CC1
Result: 0.408

Request: Give recorded growth with E. coli TESEC Mtb Alr for the following compound: S=C(NC1CCCCC1)N1CCC(c2cnc[nH]2)CC1 [Thioperamide maleate]
Result: 0.402

Request: Give recorded growth with E. coli TESEC Mtb Alr for the following compound: CC(O)(CS(=O)(=O)c1ccc(F)cc1)C(=O)Nc1ccc(C#N)c(C(F)(F)F)c1 (stereo not drawn) [Bicalutamide]
Result: 0.397

Request: Give recorded growth with E. coli TESEC Mtb Alr for the following compound: NCC(CC(=O)O)c1ccc(Cl)cc1 (racemic) [Baclofen (R,S)]
Result: 0.408

Request: Give recorded growth with E. coli TESEC Mtb Alr for the following compound: C[N+](C)(C)CCCCCCCCCC[N+](C)(C)C [Decamethonium bromide]
Result: 0.39

Request: Give recorded growth with E. coli TESEC Mtb Alr for the following compound: CNCC(O)c1ccc(O)cc1 (racemic) [(+,-)-Synephrine]
Result: 0.419

###

Attribute: growth
- Test system: E. coli TESEC Mtb Asd
- protocol-details: growth (OD600 after 10 h); higher = more growth (less inhibition)
- setup-conditions: arabinose induction (level): High; compound 0.1 mM; raw OD600 reference: median of DMSO wells 0.331, cell-free background 0.041
Structures can show the parent of a compound that is named as a salt.
Respond numerically, and do not add a unit to the figure.

Example cases with answers are listed next.
| compound | growth |
| --- | --- |
| COc1ccc(C(CN(C)C)C2(O)CCCCC2)cc1 (stereo not drawn) | 0.436 |
| CN(C)[C@@H]1C(=O)C(C(N)=O)=C(O)[C@@]2(O)C(=O)C3=C(O)c4c(O)cccc4[C@@](C)(O)[C@H]3C[C@@H]12 [Tetracycline hydrochloride] | 0.0539 |

Request: Give recorded growth with E. coli TESEC Mtb Asd for the following compound: COP(=O)(OC)C(O)C(Cl)(Cl)Cl (stereo not drawn)
Result: 0.348

Request: Give recorded growth with E. coli TESEC Mtb Asd for the following compound: C[C@@H]1CC[C@H]2[C@@H](C)C(=O)O[C@@H]3O[C@@]4(C)CC[C@@H]1[C@]32OO4
Result: 0.219

Request: Give recorded growth with E. coli TESEC Mtb Asd for the following compound: COc1ccc(CCN)cc1OC
Result: 0.225

Request: Give recorded growth with E. coli TESEC Mtb Asd for the following compound: CC(=O)O[C@H]1C[C@@H]2CC[C@@H]3[C@H](CC[C@@]4(C)[C@H]3C[C@H]([N+]3(C)CCCCC3)[C@@H]4OC(C)=O)[C@@]2(C)C[C@@H]1[N+]1(C)CCCCC1 [Pancuronium bromide]
Result: 0.242

Request: Give recorded growth with E. coli TESEC Mtb Asd for the following compound: C[CH2][Hg][S]c1ccccc1C(=O)[O-].[Na+]
Result: 0.0491

Request: Give recorded growth with E. coli TESEC Mtb Asd for the following compound: CNCC(O)c1ccc(O)cc1 (racemic) [(+,-)-Synephrine]
Result: 0.222

Request: Give recorded growth with E. coli TESEC Mtb Asd for the following compound: Cc1cccc(C)c1NC1=NCCCS1
Result: 0.298

Request: Give recorded growth with E. coli TESEC Mtb Asd for the following compound: CC(NC(C)(C)C)C(=O)c1cccc(Cl)c1 (stereo not drawn) [Bupropion hydrochloride]
Result: 0.356

Request: Give recorded growth with E. coli TESEC Mtb Asd for the following compound: C=CCN1CC[C@]23c4c5ccc(O)c4O[C@H]2C(=O)CC[C@@]3(O)[C@H]1C5 [Naloxone hydrochloride]
Result: 0.295

###

- Test system: E. coli TESEC Alr+ wild-type control
- protocol-details: growth (OD600 after 10 h); higher = more growth (less inhibition)
- setup-conditions: compound 0.1 mM; raw OD600 reference: median of DMSO wells 0.49, cell-free background 0.052
Where a name gives a salt, the structure may show the parent alone.
measurement-label: growth
Respond numerically, and do not add a unit to the figure.

| molecule | growth |
| --- | --- |
| C#C[C@]1(O)CC[C@H]2[C@@H]3CCC4=CC(=O)CCC4=C3C=C[C@@]21CC | 0.287 |
| C[C@H](N)[C@H](O)c1ccc(O)c(O)c1 | 0.465 |
| O=C(NCNC(=O)NC1C(=O)NC(=O)N1CO)NC1C(=O)NC(=O)N1CO (stereo unspecified) | 0.545 |
| CN1CCN(C(=O)OC2c3nccnc3C(=O)N2c2ccc(Cl)cn2)CC1 (stereo unspecified) | 0.454 |
| C[N+](C)(C)CCCCCCCCCC[N+](C)(C)C [Decamethonium bromide] | 0.417 |
| C[C@@H]1CC[C@H]2[C@@H](C)C(=O)O[C@@H]3O[C@@]4(C)CC[C@@H]1[C@]32OO4 | 0.33 |
| O=c1[nH]c2ccccc2n1C1CCN(CCCC(c2ccc(F)cc2)c2ccc(F)cc2)CC1 [Pimozide] | 0.52 |
| COc1ccc(C(CN(C)C)C2(O)CCCCC2)cc1 (stereo unspecified) | 0.438 |

Request: May I ask what growth has been recorded for CCOC(=O)c1cncn1[C@H](C)c1ccccc1 [Etomidate] ?
Result: 0.397

Request: May I ask what growth has been recorded for CC[C@@H](CO)NC(=O)[C@@H]1C=C2c3cccc4[nH]cc(c34)C[C@H]2N(C)C1 [Methylergometrine maleate] ?
Result: 0.523

Request: May I ask what growth has been recorded for S=C(NC1CCCCC1)N1CCC(c2cnc[nH]2)CC1 [Thioperamide maleate] ?
Result: 0.561

Request: May I ask what growth has been recorded for CN1C[C@H](C(=O)N[C@]2(C)O[C@@]3(O)[C@@H]4CCCN4C(=O)[C@H](Cc4ccccc4)N3C2=O)C[C@@H]2c3cccc4[nH]cc(c34)C[C@H]21 [Dihydroergotamine tartrate] ?
Result: 0.108

Request: May I ask what growth has been recorded for O=[N+]([O-])O[C@H]1CO[C@H]2[C@@H]1OC[C@H]2O[N+](=O)[O-] [Isosorbide dinitrate] ?
Result: 0.474

Request: May I ask what growth has been recorded for CCCC(C)C1(CC)C(=O)NC(=O)NC1=O (stereo unspecified) ?
Result: 0.432

Request: May I ask what growth has been recorded for NCCCNCCSP(=O)(O)O ?
Result: 0.627

Request: May I ask what growth has been recorded for CN1CCC2(C)c3cc(O)ccc3N(C)C12 (single isomer, unassigned; (-)) [(-)-Eseroline fumarate salt] ?
Result: 0.577

###

- Tested on: E. coli TESEC Mtb Alr
- protocol-details: growth (OD600 after 10 h); higher = more growth (less inhibition)
- setup-conditions: arabinose 1000000 nM; compound 0.1 mM; raw OD600 reference: median of DMSO wells 0.193, cell-free background 0.041
Counter-ions that a name gives are not always drawn.
measurement-label: growth
Respond numerically, and do not add a unit to the figure.

| molecule | growth |
| --- | --- |
| CC(O)(CS(=O)(=O)c1ccc(F)cc1)C(=O)Nc1ccc(C#N)c(C(F)(F)F)c1 (stereo not drawn) [Bicalutamide] | 0.108 |

Request: May I ask what growth has been recorded for O=[N+]([O-])O[C@H]1CO[C@H]2[C@@H]1OC[C@H]2O[N+](=O)[O-] [Isosorbide dinitrate] ?
Result: 0.185

Request: May I ask what growth has been recorded for CC(=O)OC1CN2CCC1CC2 (stereo not drawn) [Aceclidine Hydrochloride] ?
Result: 0.174

Request: May I ask what growth has been recorded for CN(C)C(=O)Oc1cc(OC(=O)N(C)C)cc(C(O)CNC(C)(C)C)c1 (stereo not drawn) [Bambuterol hydrochloride] ?
Result: 0.193

Request: May I ask what growth has been recorded for CC(C)c1cccc(C(C)C)c1O [Propofol] ?
Result: 0.175
